Where a name gives a salt, the structure may show the parent alone.
property.label: melting point

Prompt: Form field: reported melting point of C=CCNc1nc(N(CC=C)CC=C)nc2c(C)csc12 (as salt: hydrochloride)
Completion: 136 to 138 °C (dec.)

Prompt: Same read-out for C=CCNc1nc(NN(C)C)c2cc([N+](=O)[O-])ccc2n1 ?
Completion: 145 to 146 °C

Prompt: Same read-out for C=CCNc1nc(NC(=O)NC2CCCCC2)c2scc(C)c2n1 ?
Completion: 152 to 153 °C

Prompt: Same read-out for C=CC(C)Nc1nc(NCCCC)nc2ccc([N+](=O)[O-])cc12 (stereo not shown) ?
Completion: 156 to 158 °C

Prompt: Same read-out for C=CCNc1nc(NCc2ccccc2)c2scc(C)c2n1 ?
Completion: 97 to 98 °C

----------
Reported values of melting point for individual entries

# compound, melting point
rows = [
    ("C=CCNc1nc(NCc2ccccc2)nc2ccc([N+](=O)[O-])cc12", "216 to 217 °C"),
]

Prompt: Form field: reported melting point of C=CCNc1nc(NCCC)c2cc([N+](=O)[O-])ccc2n1
Completion: 211 to 212 °C

Prompt: Same read-out for C=CCNc1nc(NC(C)(C)C)c2scc(C)c2n1 ?
Completion: 89 to 90 °C

Prompt: Same read-out for C=CCNc1nc(NN2CCCCC2)nc2ccc([N+](=O)[O-])cc12 ?
Completion: 221 to 222 °C

Prompt: Same read-out for C=CCNc1nc(NC(C)C=C)c2cc([N+](=O)[O-])ccc2n1 (stereo not shown) ?
Completion: 172 to 173 °C

Prompt: Same read-out for C=CCNc1nc(NC(CO)CO)c2scc(C)c2n1 ?
Completion: 163 to 164 °C

Prompt: Same read-out for C=CCNc1nc(NCC)nc2ccc([N+](=O)[O-])cc12 ?
Completion: 227 to 228 °C

----------
Counter-ions that a name gives are not always drawn.
property.label: melting point

The examples below pair each entry with its known result.
# compound, melting point
records = [
    ("C=CCNc1nc(NCc2ccccn2)nc2ccc([N+](=O)[O-])cc12", "202 to 203 °C"),
    ("C#CCNc1nc(NCC=C)nc2c(C)csc12", "95 to 96 °C"),
    ("C=CCNc1nc(NCc2ccccc2)c2cc([N+](=O)[O-])ccc2n1", "235 to 236 °C"),
    ("C=CCNC(=O)Nc1nc(NCC=C)nc2c(C)csc12", "164 to 165 °C"),
    ("C=CCNc1nc(NC(C)C=C)nc2ccc([N+](=O)[O-])cc12 (stereo not shown)", "123 to 124 °C"),
]

Prompt: Form field: reported melting point of C=CCNc1nc(NCCCCCCCCCCCC)nc2ccc([N+](=O)[O-])cc12
Completion: 148 to 155 °C

Prompt: Same read-out for C=CCNc1nc(NC/C=C/c2ccccc2)c2cc([N+](=O)[O-])ccc2n1 ?
Completion: 206 to 208 °C

Prompt: Same read-out for C=CCNc1nc(NC(C)C)c2scc(C)c2n1 ?
Completion: 106 to 107 °C

Prompt: Same read-out for C=CCNc1nc(NCC=C(C)C)c2scc(C)c2n1 ?
Completion: 114 to 115 °C

Prompt: Same read-out for C=CCNc1nc(NCC(C)(C)C)nc2ccc([N+](=O)[O-])cc12 ?
Completion: 167 to 168 °C

Prompt: Same read-out for C=CCNc1nc(NCCCCCCCCC)c2scc(C)c2n1 ?
Completion: 65 to 66 °C

Prompt: Same read-out for C=CCNc1nc(NCCCCCCC)nc2ccc([N+](=O)[O-])cc12 ?
Completion: 173 to 174 °C

Prompt: Same read-out for C=CCNc1nc(NCC=C)c2cc(NC)ccc2n1 (as salt: hydrochloride) ?
Completion: 155 to 158 °C

Prompt: Same read-out for C=CCNc1nc(NCCCC)c2scc(C)c2n1 ?
Completion: 68 to 70 °C

Prompt: Same read-out for C=CCNc1nc(NC)nc2ccc([N+](=O)[O-])cc12 ?
Completion: 238 to 239 °C

Prompt: Same read-out for C=CCNc1nc(NCC=C)c2scc(-c3ccccc3)c2n1 ?
Completion: 98 to 100 °C

Prompt: Same read-out for C=CCNc1nc(NCCOCCC)c2cc([N+](=O)[O-])ccc2n1 ?
Completion: 156 to 157 °C

Prompt: Same read-out for C=CCNc1nc(NCC(=C)C)c2scc(C)c2n1 ?
Completion: 83 °C

----------
Structures can show the parent of a compound that is named as a salt.
property.label: melting point

The examples below pair each entry with its known result.
# compound, melting point
records = [
    ("C=CCNc1nc(NCc2ccco2)nc2ccc([N+](=O)[O-])cc12 (as salt: hydrochloride)", "217 to 218 °C"),
    ("C=CCNc1nc(NCCOCCC)nc2ccc([N+](=O)[O-])cc12", "169 to 170 °C"),
    ("C=CCNc1nc(NCCC)nc2c(C)csc12", "74 to 75 °C"),
    ("C#CCNc1nc(NCC=C)c2cc([N+](=O)[O-])ccc2n1", "192 to 193 °C"),
    ("CC(C)=CCNc1nc(NCC=C(C)C)c2cc([N+](=O)[O-])ccc2n1", "168 to 172 °C"),
    ("CCCCNc1nc(NCC=C(C)C)c2cc([N+](=O)[O-])ccc2n1", "171 to 172 °C"),
    ("C=CCNc1nc(NCC(C)(C)C)c2cc([N+](=O)[O-])ccc2n1", "216 to 217 °C"),
    ("C=CCNc1nc(NC(C)=O)c2cc([N+](=O)[O-])ccc2n1", "253 to 254 °C"),
    ("C=CCNc1nc(NC2CCCCC2)c2scc(C)c2n1 (as salt: hydrochloride)", "140 to 142 °C"),
    ("C=CCNc1nc(N(CC=C)CC=C)c2scc(C)c2n1 (as salt: hydrochloride)", "76 to 78 °C (dec.)"),
]

Now for another entry.
Prompt: Form field: reported melting point of C=CCNc1nc(NCCCCCCCCCCCC)c2cc([N+](=O)[O-])ccc2n1
Completion: 154 to 155 °C

----------
property.label: melting point

The examples below pair each entry with its known result.
# compound.string, melting point
records = [
    ("C=CCNc1nc(NC(C)C)nc2ccc([N+](=O)[O-])cc12", "150 to 151 °C"),
    ("C=CCNc1nc(NC(C)(C)C)nc2ccc([N+](=O)[O-])cc12", "139 to 140 °C"),
]

Now for another entry.
Prompt: Form field: reported melting point of C=CCNc1nc(NC(=O)NCCCC)c2scc(C)c2n1
Completion: 141 °C

----------
property.label: melting point

Prompt: Form field: reported melting point of C=CCNc1nc(N(CC=C)CC=C)nc2ccc([N+](=O)[O-])cc12
Completion: 167 to 168 °C

Prompt: Same read-out for C=CCNC(=O)CCNc1nc(NCC=C)nc2c(C)csc12 ?
Completion: 95 to 96 °C

Prompt: Same read-out for C=CCNc1nc(N2CCCCC2)c2cc([N+](=O)[O-])ccc2n1 ?
Completion: 123 to 124 °C

Prompt: Same read-out for C=CCNc1nc(NCCC)nc2ccc([N+](=O)[O-])cc12 ?
Completion: 197 to 198 °C

----------
Structures can show the parent of a compound that is named as a salt.
property.label: melting point

The examples below pair each entry with its known result.
# molecule, val
rows = [
    ("C=CCNc1nc(NCC=C)c2cc([N+](=O)[O-])ccc2n1", "198 to 200 °C (dec.)"),
    ("C=CCNc1nc(NCC=C)c2cc(N)ccc2n1", "212 to 215 °C"),
    ("C=CCNc1nc(NCCOC)nc2c(C)csc12", "87 to 88 °C"),
]

Prompt: Form field: reported melting point of C=CCNc1nc(NCC(F)(F)F)nc2ccc([N+](=O)[O-])cc12
Completion: 221 to 222 °C

Prompt: Same read-out for C=CCNc1nc(NC23CC4CC(CC(C4)C2)C3)c2scc(C)c2n1 ?
Completion: 107 to 109 °C

Prompt: Same read-out for C=CCNc1nc(NCC)c2scc(C)c2n1 ?
Completion: 96 to 97 °C

Prompt: Same read-out for C=CCNc1nc(NC/C=C/c2ccccc2)c2scc(C)c2n1 ?
Completion: 82 to 84 °C

Prompt: Same read-out for C=CCNc1nc(NC(=O)NC(C)(C)C)c2cc([N+](=O)[O-])ccc2n1 ?
Completion: 200 to 201 °C

Prompt: Same read-out for C=CCNc1nc(NC(C)CC)nc2ccc([N+](=O)[O-])cc12 (stereo not drawn) (as salt: hydrochloride) ?
Completion: 219 to 220 °C

Prompt: Same read-out for C=CCNc1nc(NC(=O)NCCC)nc2ccc([N+](=O)[O-])cc12 ?
Completion: 254 to 255 °C

Prompt: Same read-out for C=CCNc1nc(NCC(C)(C)C)c2scc(C)c2n1 ?
Completion: 90 to 92 °C

Prompt: Same read-out for C=CCNc1nc(NCCOC)nc2ccc([N+](=O)[O-])cc12 ?
Completion: 164 to 165 °C

Prompt: Same read-out for C=CCN(C(=O)NC(C)(C)C)c1nc(NC(=O)NC(C)(C)C)c2cc([N+](=O)[O-])ccc2n1 ?
Completion: 105 to 106 °C

Prompt: Same read-out for C=CCNc1nc(NC(C)(C)C)c2cc([N+](=O)[O-])ccc2n1 (as salt: hydrochloride) ?
Completion: 208 to 209 °C

Prompt: Same read-out for C=CCNc1nc(NCCC(=O)N2CCCCC2)nc2ccc([N+](=O)[O-])cc12 ?
Completion: 178 to 179 °C

Prompt: Same read-out for C=CCNc1nc(NCC=C)c2scc(Br)c2n1 ?
Completion: 87 to 88 °C

Prompt: Same read-out for C=CCNc1nc(NCCCC)c2cc([N+](=O)[O-])ccc2n1 ?
Completion: 214 to 215 °C

Prompt: Same read-out for C=CCNc1nc(NCC=C(C)C)nc2ccc([N+](=O)[O-])cc12 ?
Completion: 194 to 195 °C

Prompt: Same read-out for C=CCNc1nc(NCC=C)c2cc(Cl)ccc2n1 ?
Completion: 78 to 79 °C

Prompt: Same read-out for C=CCNc1nc(NNC(C)(C)C)c2scc(C)c2n1 ?
Completion: 105 to 107 °C

Prompt: Same read-out for C=CCNc1nc(NC(C)CC)c2scc(C)c2n1 (stereo not drawn) ?
Completion: 91 to 92 °C

Values compiled from patent US20010006969A1.
